Quick list: Rv90 per entry.
# Test system: MUTZ-3 cells
# Protocol text: Chemical cytotoxicity, concentration yielding 90% relative viability (Rv90), propidium iodide staining
Be sure to follow the number with its unit.

Input C=O [Formaldehyde] . Output Rv90: 80 µM

###

# Test system: MUTZ-3 cells
# Protocol text: Chemical cytotoxicity, concentration yielding 90% relative viability (Rv90), propidium iodide staining
Reported endpoint: Rv90 (µM)
Expressed in µM, but write only the number.

O=CC=O | 300

Documented Rv90 of CCCCCCCCCCCCOS(=O)(=O)[O-].[Na+] [Sodium dodecyl sulphate] : 200

Summary for this compound, `Nc1ccc(N)cc1` : Rv90 is 75
